B1: CPEB3 Ribozyme (parent)
chain: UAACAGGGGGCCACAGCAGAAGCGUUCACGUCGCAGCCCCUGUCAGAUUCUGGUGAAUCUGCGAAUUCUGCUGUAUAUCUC

Variants of: B1
Assay: self-cleavage, relative activity (ratio to wild type); higher = more cleavage; in vitro, sequencing
In this section we review reported self-cleavage values for a set of variants.
Keep the answer to the number alone.

# Change, Result number
records = [
    ("A35U U60A", 0.25),
    ("A5U G19A", 0.72),
    ("G33C U43C", 0.22),
]

The variant listed as G6U A64G shows self-cleavage equal to 0.32
